target: intracellular GCN2 (phosphorylation of the GCN2 substrate eIF2α) (Homo sapiens, UniProt Q9P2K8); experiment: GCN2 cellular inhibition assay (AlphaScreen SureFire P-eIF2α Ser51, borrelidin-treated U2OS cells); assay type: cell-based; details: compounds of Formula II; biomarker assay, phosphorylated eIF2α Ser51 in borrelidin-treated U2OS cells
Sequence (Q9P2K8 whole entry): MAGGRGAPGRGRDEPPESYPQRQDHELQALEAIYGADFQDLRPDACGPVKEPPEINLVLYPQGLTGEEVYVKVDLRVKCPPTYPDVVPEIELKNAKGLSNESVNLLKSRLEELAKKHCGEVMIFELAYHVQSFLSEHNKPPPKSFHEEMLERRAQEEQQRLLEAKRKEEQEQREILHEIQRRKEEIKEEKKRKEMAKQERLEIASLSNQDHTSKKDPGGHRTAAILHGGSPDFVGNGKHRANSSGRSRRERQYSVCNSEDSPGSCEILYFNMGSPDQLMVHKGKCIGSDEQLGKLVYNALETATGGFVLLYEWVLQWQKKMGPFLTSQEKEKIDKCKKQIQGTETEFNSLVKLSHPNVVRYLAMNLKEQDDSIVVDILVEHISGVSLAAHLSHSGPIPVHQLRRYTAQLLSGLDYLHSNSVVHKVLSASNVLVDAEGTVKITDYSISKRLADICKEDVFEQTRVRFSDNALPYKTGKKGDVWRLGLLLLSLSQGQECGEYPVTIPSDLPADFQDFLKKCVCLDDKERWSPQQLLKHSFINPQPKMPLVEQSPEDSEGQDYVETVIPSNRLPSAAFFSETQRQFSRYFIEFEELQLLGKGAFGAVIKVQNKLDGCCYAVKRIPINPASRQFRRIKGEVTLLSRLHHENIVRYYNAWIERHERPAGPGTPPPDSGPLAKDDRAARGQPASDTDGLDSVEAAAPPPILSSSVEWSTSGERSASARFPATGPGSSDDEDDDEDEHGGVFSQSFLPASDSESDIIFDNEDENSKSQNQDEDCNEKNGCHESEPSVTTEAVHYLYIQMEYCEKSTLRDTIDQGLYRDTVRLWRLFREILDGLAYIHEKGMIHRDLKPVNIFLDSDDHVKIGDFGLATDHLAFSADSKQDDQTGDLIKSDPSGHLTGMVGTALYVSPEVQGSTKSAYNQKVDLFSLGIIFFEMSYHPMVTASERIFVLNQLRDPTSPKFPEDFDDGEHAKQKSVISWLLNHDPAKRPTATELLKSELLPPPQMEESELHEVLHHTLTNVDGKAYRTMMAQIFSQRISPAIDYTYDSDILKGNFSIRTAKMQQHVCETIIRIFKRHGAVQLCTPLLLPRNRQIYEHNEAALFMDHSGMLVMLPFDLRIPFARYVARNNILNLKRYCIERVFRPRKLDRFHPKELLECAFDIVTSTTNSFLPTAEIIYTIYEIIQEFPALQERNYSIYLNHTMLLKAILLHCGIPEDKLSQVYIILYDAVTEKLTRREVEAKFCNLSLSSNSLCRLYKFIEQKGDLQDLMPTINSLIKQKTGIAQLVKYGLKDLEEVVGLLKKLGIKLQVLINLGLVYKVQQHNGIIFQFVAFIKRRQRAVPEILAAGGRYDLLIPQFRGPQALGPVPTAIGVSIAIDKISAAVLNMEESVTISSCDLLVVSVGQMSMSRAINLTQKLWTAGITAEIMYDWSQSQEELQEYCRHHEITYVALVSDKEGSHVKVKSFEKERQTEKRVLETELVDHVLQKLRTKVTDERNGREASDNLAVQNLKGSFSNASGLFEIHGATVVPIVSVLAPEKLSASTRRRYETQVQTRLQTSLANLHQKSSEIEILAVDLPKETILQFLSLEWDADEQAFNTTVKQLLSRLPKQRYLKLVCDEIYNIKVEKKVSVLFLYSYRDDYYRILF
Structures can show the parent of a compound that is named as a salt.
QUANTITY: IC50

COMPOUND	IC50
CC1CC(C)(O)C(CNS(C)(=O)=O)CN1c1cc(-c2cnc3ccc(C(F)F)nn23)ncn1 (stereo not drawn) [II-367]	500 to 5000 nM
COc1ccc2ncc(-c3ccnc(N4CCN(C(C)=O)CC4)c3)n2n1 [II-204, trifluoroacetate]	> 5000 nM
CC1C(NS(C)(=O)=O)CCCN1c1cc(-c2cnc3ccc(C(F)F)nn23)ncn1 (single isomer, unassigned) [II-374]	500 to 5000 nM

stdin: Dear colleague, I am looking for the recorded IC50 of the following compound: Cc1cc(-c2cnc3ccc(C(F)F)nn23)cc(N2CCCC(CNS(C)(=O)=O)C2)n1 (stereo not drawn) [II-129]
stdout: 500 to 5000 nM

stdin: Also CNS(=O)(=O)N[C@H]1CCCN(c2cc(-c3cnc4ccc(C(F)F)nn34)ncn2)C1 [II-422] ?
stdout: < 500 nM

stdin: Here is the next compound: CC1(C)CN(c2cc(-c3cnc4ccc(C(F)F)nn34)ncn2)CC1CNS(C)(=O)=O (stereo not drawn) [II-213]
stdout: 500 to 5000 nM

---

Recorded Ki values for a group of molecules are listed next.
molecular target: GCN2 kinase (Homo sapiens); experiment: GCN2 enzyme inhibition assay (Transcreener ADP2 fluorescence polarization); format: biochemical; details: compounds of Formula II; 280 μM ATP, 4 nM GCN2 kinase

stdin: For CS(=O)(=O)CC1CCN(c2cc(-c3cnc4ccc(C(F)F)nn34)ncn2)C1 (stereo not drawn) , what is its reported Ki?
stdout: 10 to 1000 nM

---

biological target: UniProt Q9P2K8; assay: GCN2 enzyme inhibition assay (Transcreener ADP2 fluorescence polarization); assay type: biochemical; details: Enzyme activity for compounds of Formula IV; Ki(app), 280 μM ATP, 25° C.
pKi: −log10 of the molar value.
QUANTITY: pKi

MOLECULE	MEASURED VALUE
CC1C(c2cn[nH]c2)NCCN1c1ccnc(-c2cnc3cnc(Br)cn23)n1 (single isomer, unassigned) [IV-414]	> 8.00
Cn1ccc2cc(-c3ccnc(-c4cnc5cnc(C(F)F)cn45)n3)ccc21	6.00 to 7.00
CS(=O)(=O)NCC(=O)Nc1cccc(-c2ccnc(-c3cnc4cnc(C(F)F)cn34)n2)c1	6.00 to 7.00
FC(F)(F)c1cn2c(-c3nccc(N4CCC(c5ccccn5)C4)n3)cnc2cn1 (stereo not drawn)	6.00 to 7.00
FC(F)(F)c1cn2c(-c3nccc(N4CC(c5cn[nH]c5)NC(C(F)(F)F)C4)n3)cnc2cn1 (stereo not drawn)	7.00 to 8.00
Cn1cc(C(F)(F)F)nc1C1CCCN(c2ccnc(-c3cnc4cnc(C(F)(F)F)cn34)n2)C1 (stereo not drawn)	6.00 to 7.00

stdin: # query: pKi of entry FC(F)(F)c1cn2c(-c3nccc(N4CCCOCC4)n3)cnc2cn1
stdout: 6.00 to 7.00

stdin: Same thing, different molecule: Cc1n[nH]cc1C1CCCN(c2ccnc(-c3cnc4cnc(C(F)F)cn34)n2)C1 (single isomer, unassigned) [IV-468]
stdout: 7.00 to 8.00

stdin: Now try CC1C(NS(C)(=O)=O)CCCN1c1ccnc(-c2cnc3cnc(C(F)F)cn23)n1 (stereo not drawn) .
stdout: 6.00 to 7.00

---

Measured pKi, listed per entry for reference.
target: GCN2 kinase (Homo sapiens, UniProt Q9P2K8); assay: GCN2 enzyme inhibition assay (Transcreener ADP2 fluorescence polarization); format: biochemical; conditions: Enzyme activity for compounds of Formula IV; Ki(app), 280 μM ATP, 25° C.
Sequence (Q9P2K8 whole entry): as above
pKi: −log10 of the molar value.

MOLECULE	pKi
O=c1[nH]nc2n1CCN(c1ccnc(-c3cnc4cnc(C(F)F)cn34)n1)C2 [IV-83]	6.00 to 7.00
CC(=O)N1CCN(c2ccnc(-c3cnc4cnc(C(=O)O)cn34)n2)CC1 [IV-30]	6.00 to 7.00
CC1C(c2cn[nH]c2)N(CCO)C(C)CN1c1ccnc(-c2cnc3cnc(C(F)(F)F)cn23)n1 (single isomer, unassigned) [IV-636]	> 8.00
CC1CN(c2ccnc(-c3cnc4cnc(C(F)(F)F)cn34)n2)C(C)C(c2c[nH]c(C(F)(F)F)n2)N1 (single isomer, unassigned) [IV-673]	> 8.00

stdin: Value lookup for pKi; key = C[C@@H]1[C@H](c2cn[nH]c2)OCCN1c1ccnc(-c2cnc3cnc(C#N)cn23)n1 (racemic) [IV-280]
stdout: > 8.00

stdin: What do you get for FC(F)(F)c1cn2c(-c3nccc(N4CCC(c5cc[nH]n5)C4)n3)cnc2cn1 (stereo not shown) [IV-457] ?
stdout: 6.00 to 7.00

---

target: GCN2 kinase (Homo sapiens, UniProt Q9P2K8); assay: GCN2 enzyme inhibition assay (Transcreener ADP2 fluorescence polarization); format: biochemical; details: compounds of Formula II; 280 μM ATP, 4 nM GCN2 kinase
pKi: −log10 of the molar value.
pKi overview

stdin: Entry under review: CN1CCN(c2cc(-c3cnc4ccc(C(F)F)nn34)ncn2)CC1CC(N)=O (stereo not shown) . Reported pKi?
stdout: 6.00 to 8.00

---

molecular target: intracellular GCN2 (phosphorylation of the GCN2 substrate eIF2α) (Homo sapiens, UniProt Q9P2K8); test: GCN2 cellular inhibition assay (AlphaScreen SureFire P-eIF2α Ser51, borrelidin-treated U2OS cells); type: cell-based; settings: compounds of Formula II; biomarker assay, phosphorylated eIF2α Ser51 in borrelidin-treated U2OS cells
QUANTITY: IC50

stdin: Query: IC50; subject: CC1CN(C)C(CNS(C)(=O)=O)CN1c1cc(-c2cnc3ccc(C(F)F)nn23)ncn1 (stereo not shown) [II-423]
stdout: > 5 µM

stdin: Next molecule: CNCCOc1cc(-c2cnc3ccc(C(F)F)nn23)cc(N2CCCC(CNS(C)(=O)=O)C2)n1 (stereo not shown) [II-74]
stdout: 0.5 to 5 µM

stdin: Please do the same for C[C@H]1CN(c2cc(-c3cnc4ccc(C(F)F)nn34)ncc2F)C[C@@H](CNS(C)(=O)=O)C1(F)F [II-270] as well.
stdout: 0.5 to 5 µM

stdin: Can you handle CC1C(CNS(C)(=O)=O)N(C)C(C)CN1c1cc(-c2cnc3ccc(C(F)F)nn23)ncn1 (stereo not shown) [II-448] next?
stdout: < 0.5 µM

stdin: What do you have for CS(=O)(=O)NC1CCCN(c2cc(-c3cnc4ccc(C(F)F)nn34)ncn2)C1 (stereo not shown) [II-362] ?
stdout: 0.5 to 5 µM

stdin: Then CS(=N)(=O)C1CCCN(c2cc(-c3cnc4ccc(C(F)F)nn34)ncn2)C1 (stereo not shown) [II-522] ?
stdout: 0.5 to 5 µM

stdin: Can you handle CC1CN(c2cc(-c3cnc4ccc(C(F)(F)F)nn34)ncn2)CC(CNS(C)(=O)=O)C1(F)F (stereo not shown) [II-294] next?
stdout: > 5 µM

---

Reported values of pKi for individual entries
target: GCN2 kinase (Homo sapiens); experiment: GCN2 enzyme inhibition assay (Transcreener ADP2 fluorescence polarization); type: biochemical; conditions: compounds of Formula II; 280 μM ATP, 4 nM GCN2 kinase
pKi: −log10 of the molar value.

COMPOUND	pKi
FC(F)c1ccc2ncc(-c3ccnc(N4CCn5cnnc5C4)c3)n2n1	6.00 to 8.00

stdin: # get_value(readout='pKi', item= OC[C@@H]1CCCN(c2cc(-c3cnc4ccc(C(F)F)nn34)ncn2)C1 )
stdout: 6.00 to 8.00

stdin: Next record, please: CC1CC(N=S(C)(C)=O)CN(c2cc(-c3cnc4ccc(C(F)F)nn34)ncn2)C1 (single isomer, unassigned)
stdout: 6.00 to 8.00

stdin: Would you mind doing CC1C(CNS(C)(=O)=O)OCCN1c1cc(-c2cnc3ccc(C(F)F)nn23)ncn1 (centres unmarked) [II-345] as well?
stdout: > 8.00

stdin: Same again, this time with CS(=O)(=O)NCC1CCCN(c2cc(-c3cnc4ccc(C(F)F)nn34)cc(OC3CNC3)n2)C1 (centres unmarked)
stdout: > 8.00

stdin: What about CS(=O)(=O)NCC1CCCN(c2cc(-c3cnc4ccc(C(F)F)nn34)cc(N3CC4(CCN4)C3)n2)C1 (centres unmarked) ?
stdout: > 8.00

---

biological target: intracellular GCN2 (phosphorylation of the GCN2 substrate eIF2α) (Homo sapiens, UniProt Q9P2K8); assay: GCN2 cellular inhibition assay (AlphaScreen SureFire P-eIF2α Ser51, borrelidin-treated U2OS cells); type: cell-based; conditions: compounds of Formula II; biomarker assay, phosphorylated eIF2α Ser51 in borrelidin-treated U2OS cells
QUANTITY: IC50

Observe how each entry below is paired with its result.
MOLECULE	MEASURED VALUE
CC(=O)N1CCN(c2ccnc(-c3cnc4ccc(C(F)F)nn34)c2)CC1 [II-127]	0.5 to 5 µM
CC1CN(c2cc(-c3cnc4ccc(C(F)F)nn34)ncn2)CC(CNS(C)(=O)=O)C1=O (centres unmarked) [II-526]	< 0.5 µM
NC(=O)C1CCCN(c2cc(-c3cnc4ccc(C(F)F)nn34)ncn2)C1 (centres unmarked) [II-378]	0.5 to 5 µM
CC(=O)N1CCN(c2cc(-c3cnc4ccc(N5CCOCC5)nn34)ccn2)CC1 [II-738]	> 5 µM
FC(F)c1ccc2ncc(-c3ccnc(N4CCOC(c5cn[nH]c5)C4)c3)n2n1 (centres unmarked) [II-147]	< 0.5 µM

stdin: Look at this molecule and give its reported IC50. OCCC1CN(c2cc(-c3cnc4ccc(C(F)F)nn34)ncn2)CCN1 (centres unmarked) [II-496]
stdout: > 5 µM

stdin: Likewise for C[C@@H]1[C@H](CNS(C)(=O)=O)N(C2CC2)CCN1c1cc(-c2cnc3ccc(C(F)F)nn23)ncn1 [II-753] ?
stdout: 0.5 to 5 µM

stdin: Same again, this time with NS(=O)(=O)NCC1CN(c2cc(-c3cnc4ccc(C(F)F)nn34)ncn2)CCO1 (centres unmarked) [II-347]
stdout: < 0.5 µM

stdin: Check CS(=O)(=O)NCC1CN(c2cc(-c3cnc4ccc(C(F)F)nn34)ncn2)CC2(CC2)O1 (centres unmarked) [II-384] too.
stdout: < 0.5 µM

stdin: Next: CS(=O)(=O)NCC1CCCN(c2cc(-c3cnc4ccc(C(F)F)nn34)cc(C(F)(F)F)n2)C1 (centres unmarked) [II-63]
stdout: > 5 µM

stdin: Continue with CS(=O)(=O)NC[C@@H]1CN(c2cc(-c3cnc4ccc(C(F)F)nn34)ncn2)CCO1 [II-34]
stdout: < 0.5 µM

stdin: Also check CCc1ccc2ncc(-c3cc(N4CCO[C@H](CNS(C)(=O)=O)C4)ncn3)n2n1 [II-196]
stdout: > 5 µM

stdin: How about this molecule: NC(=O)c1ccc2ncc(-c3cc(N4CCN5C(=O)CCCC5C4)ncn3)n2n1 (centres unmarked) [II-727]
stdout: > 5 µM

stdin: Also OC1([C@@H]2CN(c3cc(-c4cnc5ccc(C(F)F)nn45)ncn3)CCN2)CC1 [II-454] ?
stdout: > 5 µM
